Target: Leucine aminopeptidase (Plasmodium falciparum 3D7, UniProt Q8IL11)
Sequence (Q8IL11 whole entry): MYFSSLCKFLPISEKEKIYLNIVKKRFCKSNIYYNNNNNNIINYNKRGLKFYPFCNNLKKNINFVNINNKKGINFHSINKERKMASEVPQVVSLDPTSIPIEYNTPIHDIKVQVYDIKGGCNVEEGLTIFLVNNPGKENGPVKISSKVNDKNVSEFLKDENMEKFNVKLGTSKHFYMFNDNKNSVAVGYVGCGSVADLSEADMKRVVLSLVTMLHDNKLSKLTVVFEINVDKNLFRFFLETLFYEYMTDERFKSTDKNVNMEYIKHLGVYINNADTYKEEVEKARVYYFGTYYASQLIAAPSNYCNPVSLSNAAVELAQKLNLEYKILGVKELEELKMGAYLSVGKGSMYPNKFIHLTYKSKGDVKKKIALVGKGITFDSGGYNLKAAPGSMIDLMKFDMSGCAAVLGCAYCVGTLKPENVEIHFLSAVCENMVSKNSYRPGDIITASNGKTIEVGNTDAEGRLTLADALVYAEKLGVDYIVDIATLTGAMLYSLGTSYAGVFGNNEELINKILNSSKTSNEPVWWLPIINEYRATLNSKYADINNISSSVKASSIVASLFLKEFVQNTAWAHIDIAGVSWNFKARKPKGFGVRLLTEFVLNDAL
Assay: P. falciparum M17LAP inhibitors, primary screen, biochemical, fluorogenic H-Leu-NHMec substrate, 1536-well (AID 1619)
Type: functional
The source made the active and inactive calls. How the calls were made is not given here.
value.kind: IC50

Answered cases to consult:
Req: Please tell me: IC50 of `Cc1ccccc1C(=O)NCC(=O)NNC(=S)NC(=O)c1ccccc1` , system Leucine aminopeptidase (Plasmodium falciparum 3D7, UniProt Q8IL11)?
Resp: 47.4 µM (active)

Req: Please tell me: IC50 of `Cc1ccc(NC(=O)c2cc(NC(=O)CCC(=O)O)ccc2N2CCCCC2)cc1` , system Leucine aminopeptidase (Plasmodium falciparum 3D7, UniProt Q8IL11)?
Resp: 11.8 µM (active)

Req: Please tell me: IC50 of `O=C(O)c1ccc(N2C(=O)/C(=C/c3ccc(-c4ccc([N+](=O)[O-])cc4)o3)C=C2c2ccccc2)cc1` , system Leucine aminopeptidase (Plasmodium falciparum 3D7, UniProt Q8IL11)?
Resp: 21.4 µM (active)

Req: Please tell me: IC50 of `Cc1ccc(N/N=C2/C(=O)Nn3c2nc(C)cc3=O)cc1` , system Leucine aminopeptidase (Plasmodium falciparum 3D7, UniProt Q8IL11)?
Resp: 86.1 µM (active)

Req: Please tell me: IC50 of CC(Sc1nc2ccccc2s1)C(=O)Nc1nnc(C(C)C)s1 (configuration not stated) , system Leucine aminopeptidase (Plasmodium falciparum 3D7, UniProt Q8IL11)?
Resp: 2.84 µM (active)

Next:
Req: Please tell me: IC50 of `CCOC(=O)c1ccc(NC(=O)CN2C(=O)CSCC2=O)cc1` , system Leucine aminopeptidase (Plasmodium falciparum 3D7, UniProt Q8IL11)?
Resp: 41.8 µM (active)

Req: Please tell me: IC50 of CCSc1nnc(NC(=O)C2(C)Cc3ccccc3C(=O)O2)s1 (configuration not stated) , system Leucine aminopeptidase (Plasmodium falciparum 3D7, UniProt Q8IL11)?
Resp: 33.6 µM (active)
